assay comment: Porcine-PK study of BuMA Supreme stent (blood, myocardium, coronary artery tissue)
Format: in vivo, Yucatan Miniature Swine
condition description: Yucatan miniature swine, pig, coronary artery, stented segment, other: drug-eluting stent implanted in coronary arteries, study day 90; read-out: Arterial drug concentration
reported endpoint: concentration at 90 days (ng/g)

[[record]]
compound = "CO[C@H]1C[C@@H]2CC[C@@H](C)[C@@](O)(O2)C(=O)C(=O)N2CCCC[C@H]2C(=O)O[C@H]([C@H](C)C[C@@H]2CC[C@@H](O)[C@H](OC)C2)CC(=O)[C@H](C)/C=C(\\C)[C@@H](O)[C@@H](OC)C(=O)[C@H](C)C[C@H](C)/C=C/C=C/C=C/1C [Rapamycin, Sirolimus (rapamycin)]"
result = 451

